Source listed as patent US20230000795A1.

assay: Solubility in receptor solution (PBS with 0.1% Brij); format: physicochemical; details: aqueous with cosolvent or surfactant or cyclodextrin, thermodynamic from solid; PBS buffer with 0.1% Brij; 32° C., 24 h; read-out: Solubility in receptor solution
This section presents compounds with their documented solubility at 24 h values.
result_type: solubility at 24 h

test_smiles	result
COc1ccc2c(c1)[nH]c1c(C)nccc12	50 µg/mL
COc1ccc(C=O)cc1O	3960 µg/mL
